Kindly state SPOT intensity for each of the entries shown.
testedTarget: T1, Hse1, P38753
T1 sequence (P38753 208-285, looked up): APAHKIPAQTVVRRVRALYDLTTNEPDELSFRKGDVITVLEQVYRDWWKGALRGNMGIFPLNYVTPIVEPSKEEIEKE
assayProtocol: SPOT array
conditionSet: median of control spots 1727

Prompt: Query (binder): PKRRAPPPVPKKPSS ; field requested: SPOT intensity
Completion: 368

Prompt: Query (binder): RRARRQMGIPTISQV ; field requested: SPOT intensity
Completion: 11

Prompt: Query (binder): LKRITSPPLPPRADS ; field requested: SPOT intensity
Completion: 38

Prompt: Query (binder): SGVRLPAPPPPPRRG ; field requested: SPOT intensity
Completion: 0

Prompt: Query (binder): TYNRTAFQIPGDQSI ; field requested: SPOT intensity
Completion: 0

Prompt: Query (binder): LASNSPPVYPKRIRH ; field requested: SPOT intensity
Completion: 1

Prompt: Query (binder): ISRRRLPVIMHRLKM ; field requested: SPOT intensity
Completion: 17
